These data points were gathered from the RNAGym collection of RNA variant scans (doi:10.1093/molbev/msab373).

B1: Azoarcus group I ribozyme (parent)
chain: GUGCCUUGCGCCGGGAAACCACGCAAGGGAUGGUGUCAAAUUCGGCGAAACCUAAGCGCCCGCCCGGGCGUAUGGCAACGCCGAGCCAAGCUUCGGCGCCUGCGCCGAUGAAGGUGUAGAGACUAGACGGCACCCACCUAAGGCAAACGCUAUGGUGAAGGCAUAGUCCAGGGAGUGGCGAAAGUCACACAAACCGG

# Variants of: B1
# test-description: reverse-splicing fitness (ratio to wild type); higher = more active; in vitro selection; Mg2+ level not given
Reported values of reverse-splicing fitness for individual entries
Please reply with the number alone, leaving off any unit.

Query :: Tell us which reverse-splicing fitness value is on record for C82A A111G A145U C150A C169U U176A
Result :: 0.0132

Query :: Give the reported reverse-splicing fitness for this variant. C82A A120U A145G C150U C169U
Result :: 0.00646

Query :: Give the measured reverse-splicing fitness for C82U A111C A120C A145G C150A C169A U176C
Result :: 0.0198

Here is another variant to look at.
Query :: Return value of reverse-splicing fitness for input C82G A111C A120U C150G C169G , no commentary.
Result :: 0.00669
